Source: patent US20100278751A1

# TGT: iNOS (Homo sapiens, UniProt P35228)
# Sequence (P35228 whole entry): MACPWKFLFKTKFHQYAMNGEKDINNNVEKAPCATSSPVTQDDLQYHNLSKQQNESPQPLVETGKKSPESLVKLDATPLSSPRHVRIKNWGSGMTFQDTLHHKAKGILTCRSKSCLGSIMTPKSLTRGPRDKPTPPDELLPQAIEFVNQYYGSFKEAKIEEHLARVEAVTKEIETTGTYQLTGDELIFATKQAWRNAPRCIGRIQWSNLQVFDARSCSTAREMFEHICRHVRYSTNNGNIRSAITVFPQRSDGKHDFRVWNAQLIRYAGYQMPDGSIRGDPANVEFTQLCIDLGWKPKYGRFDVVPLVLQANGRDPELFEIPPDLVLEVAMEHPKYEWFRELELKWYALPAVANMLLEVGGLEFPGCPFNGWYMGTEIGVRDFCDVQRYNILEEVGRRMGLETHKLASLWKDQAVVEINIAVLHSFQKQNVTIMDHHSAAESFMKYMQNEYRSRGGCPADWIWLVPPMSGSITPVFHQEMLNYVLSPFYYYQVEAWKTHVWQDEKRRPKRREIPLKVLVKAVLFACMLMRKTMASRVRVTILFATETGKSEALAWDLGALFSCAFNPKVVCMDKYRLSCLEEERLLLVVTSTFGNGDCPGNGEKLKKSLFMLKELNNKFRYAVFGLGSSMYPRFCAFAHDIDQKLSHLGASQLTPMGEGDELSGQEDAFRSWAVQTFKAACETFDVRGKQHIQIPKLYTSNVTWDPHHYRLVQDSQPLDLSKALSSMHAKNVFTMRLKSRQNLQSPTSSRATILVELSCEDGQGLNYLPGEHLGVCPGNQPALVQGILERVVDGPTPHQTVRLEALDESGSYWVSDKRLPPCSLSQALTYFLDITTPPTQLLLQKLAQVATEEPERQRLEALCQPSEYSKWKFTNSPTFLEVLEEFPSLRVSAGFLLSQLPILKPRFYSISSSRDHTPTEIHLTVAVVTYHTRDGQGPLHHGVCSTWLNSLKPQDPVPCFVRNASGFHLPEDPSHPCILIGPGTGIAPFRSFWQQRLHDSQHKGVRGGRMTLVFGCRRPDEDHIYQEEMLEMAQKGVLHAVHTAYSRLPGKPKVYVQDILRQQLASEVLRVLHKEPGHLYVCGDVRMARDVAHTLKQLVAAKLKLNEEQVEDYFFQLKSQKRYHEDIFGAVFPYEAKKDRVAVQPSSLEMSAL
# RUN DESCRIPTION: iNOS activity, nitric oxide synthase screening kit (IC50)
# Format: biochemical
# CONDITIONS: iNOS; read-out: IC50 (standards for measuring IC50)
Quick list: IC50 per entry.

MOLECULE | IC50
Nc1ncc2[nH]cnc2n1 [Compound 2-AP, 2-aminopurine, reference compound] | 108 nM

Incoming: Please report the recorded IC50 for CCSC(=N)N [SEITU, S-ethylisothiourea, reference compound] .
Outgoing: 30.5 nM

###

Quick record: pIC50, nNOS (Homo sapiens).
// pIC50 is dimensionless: -log10 of concentration (M)

COMPOUND | pIC50
Cc1cc(N)nc(CC(C)F)c1 (centres unmarked) [Compound 14] | 6.31

Please turn your attention to the following entry.
Incoming: # get_value(readout= pIC50, system= nNOS (Homo sapiens)) for Cc1cc(N)nc(CCCF)c1 [Compound 52]
Outgoing: 6.29

###

# TGT: iNOS (Homo sapiens, UniProt P35228)
# RUN DESCRIPTION: iNOS activity, nitric oxide synthase screening kit (IC50)
# Assay type: biochemical
# CONDITIONS: read-out: Selectivity (IC50) iNOS
RECORDED ENDPOINT: IC50 (nM)
// return numeric value only (unit: nM, not printed)

MOLECULE | IC50 [nM]
Cc1cc(N)nc(CC(C)F)c1 (centres unmarked) [Compound 14] | 54.3

Please turn your attention to the following entry.
Incoming: Please report the recorded IC50 for Cc1cc(N)nc(CCCF)c1 [Compound 52] .
Outgoing: 57.6

###

# TGT: iNOS (Homo sapiens)
# RUN DESCRIPTION: iNOS activity, nitric oxide synthase screening kit (IC50)
# Assay type: biochemical
# CONDITIONS: measured against SEITU, L-NIL and 2-AP as standards; read-out: IC50 for iNOS
Quick list: IC50 per entry.

COMPOUND | TEST RESULT
Cc1cc(N)nc(CC(C)F)c1 (centres unmarked) | < 190 nM

Please turn your attention to the following entry.
Incoming: Please report the recorded IC50 for `Cc1cc(N)nc(CCCF)c1` .
Outgoing: < 190 nM
